system: Bacillus subtilis (Bs); assay: MIC for Bacillus subtilis, nutrient agar; type: cell-based, Bacillus subtilis ATCC 8473; settings: pH 8.2, nutrient agar, 30° C., 48 hours, read-out: Minimum Inhibitory Concentration (MIC), Bs
Kindly supply the reported MIC values for the records listed here.

q: Report MIC for N#CC1=C(C#N)Sc2c(cnn(Cc3ccccc3)c2=O)S1 [I] please.
a: 100 µg/mL

q: Now give it for N#CC1=C(C#N)Sc2c(cnn(Cc3ccc(Cl)cc3)c2=O)S1 [J] too.
a: 50 µg/mL

q: Now give it for N#CC1=C(C#N)Sc2c(cnn(-c3ccc(Cl)c(Cl)c3)c2=O)S1 [F] too.
a: 500 µg/mL

q: Now give it for N#CC1=C(C#N)Sc2c(cnn(-c3cccc(Cl)c3)c2=O)S1 [E] too.
a: 250 µg/mL

q: Now give it for Cc1ccc(-n2ncc3c(c2=O)SC(C#N)=C(C#N)S3)cc1 [B] too.
a: 25 µg/mL

q: Now give it for N#CC1=C(C#N)Sc2c(cnn(-c3ccc([N+](=O)[O-])cc3)c2=O)S1 [H] too.
a: > 500 µg/mL

* * *

test system: Bacillus subtilis (Bs); assay: MIC for Bacillus subtilis, nutrient agar; format: cell-based, Bacillus subtilis ATCC 8473; conditions: pH 6.8, nutrient agar, 30° C., 48 hours, read-out: Minimum Inhibitory Concentration (MIC), Bs
Kindly supply the reported MIC values for the records listed here.
Supply the numeric figure in mg/L, leaving out any unit text.

q: Report MIC for N#CC1=C(C#N)Sc2c(cnn(-c3cccc(Cl)c3)c2=O)S1 please.
a: 25

q: Now give it for N#CC1=C(C#N)Sc2c(cnn(-c3ccc(Cl)cc3)c2=O)S1 too.
a: 25

q: Now give it for N#CC1=C(C#N)Sc2c(cnn(-c3ccc(Cl)c(Cl)c3)c2=O)S1 too.
a: 100

* * *

system: Proteus vulgaris (Pv); assay: MIC for Proteus vulgaris, nutrient agar; type: cell-based, Proteus vulgaris ATCC 881; details: pH 6.8, nutrient agar, 30° C., 48 hours, read-out: Minimum Inhibitory Concentration (MIC), Pv
MEASURED_PROPERTY: MIC

q: Report MIC for N#CC1=C(C#N)Sc2c(cnn(-c3ccc([N+](=O)[O-])cc3)c2=O)S1 please.
a: > 500 µg/mL

q: Now give it for Cc1ccc(-n2ncc3c(c2=O)SC(C#N)=C(C#N)S3)cc1 too.
a: 500 µg/mL

q: Now give it for N#CC1=C(C#N)Sc2c(cnn(Cc3ccccc3)c2=O)S1 too.
a: 100 µg/mL

q: Now give it for N#CC1=C(C#N)Sc2c(cnn(-c3ccccc3)c2=O)S1 too.
a: 50 µg/mL

q: Now give it for Cc1ccc(Cn2ncc3c(c2=O)SC(C#N)=C(C#N)S3)cc1 too.
a: 500 µg/mL

q: Now give it for N#CC1=C(C#N)Sc2c(cnn(-c3ccc(Cl)cc3Cl)c2=O)S1 too.
a: 500 µg/mL

q: Now give it for N#CC1=C(C#N)Sc2c(cnn(-c3ccc(Cl)cc3)c2=O)S1 too.
a: 100 µg/mL

q: Now give it for N#CC1=C(C#N)Sc2c(cnn(-c3cccc(Cl)c3)c2=O)S1 too.
a: 500 µg/mL

q: Now give it for N#CC1=C(C#N)Sc2c(cnn(-c3ccc(Br)cc3)c2=O)S1 too.
a: 250 µg/mL

q: Now give it for N#CC1=C(C#N)Sc2c(cnn(-c3ccc(Cl)c(Cl)c3)c2=O)S1 too.
a: > 500 µg/mL

q: Now give it for N#CC1=C(C#N)Sc2c(cnn(Cc3ccc(Cl)cc3)c2=O)S1 too.
a: 250 µg/mL
